Value source: patent US7488754B2

# test.target: UniProt:P03956
# Sequence (P03956 100-469): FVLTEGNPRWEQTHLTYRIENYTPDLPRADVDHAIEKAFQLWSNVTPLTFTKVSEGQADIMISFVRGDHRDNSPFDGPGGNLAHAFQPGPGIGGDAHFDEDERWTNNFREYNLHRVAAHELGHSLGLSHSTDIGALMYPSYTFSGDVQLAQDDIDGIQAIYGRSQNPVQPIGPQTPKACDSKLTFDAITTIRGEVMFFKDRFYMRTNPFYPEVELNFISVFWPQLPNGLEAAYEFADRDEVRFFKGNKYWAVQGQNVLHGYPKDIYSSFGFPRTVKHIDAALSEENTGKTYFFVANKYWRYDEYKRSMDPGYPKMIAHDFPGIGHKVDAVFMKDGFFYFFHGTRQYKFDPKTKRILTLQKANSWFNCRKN
attribute.measured: pIC50
Give only the number. pIC50 is defined as minus log10 of concentration in molar units.

Recorded pIC50 of CC#CCOc1ccc(S(=O)(=O)N2Cc3ccccc3N(C(C)=O)CC2C(=O)NO)cc1 (stereo not shown) [A] , please.
8.18

====

# test.target: TACE (Homo sapiens)
# Sequence (P78536 215-824): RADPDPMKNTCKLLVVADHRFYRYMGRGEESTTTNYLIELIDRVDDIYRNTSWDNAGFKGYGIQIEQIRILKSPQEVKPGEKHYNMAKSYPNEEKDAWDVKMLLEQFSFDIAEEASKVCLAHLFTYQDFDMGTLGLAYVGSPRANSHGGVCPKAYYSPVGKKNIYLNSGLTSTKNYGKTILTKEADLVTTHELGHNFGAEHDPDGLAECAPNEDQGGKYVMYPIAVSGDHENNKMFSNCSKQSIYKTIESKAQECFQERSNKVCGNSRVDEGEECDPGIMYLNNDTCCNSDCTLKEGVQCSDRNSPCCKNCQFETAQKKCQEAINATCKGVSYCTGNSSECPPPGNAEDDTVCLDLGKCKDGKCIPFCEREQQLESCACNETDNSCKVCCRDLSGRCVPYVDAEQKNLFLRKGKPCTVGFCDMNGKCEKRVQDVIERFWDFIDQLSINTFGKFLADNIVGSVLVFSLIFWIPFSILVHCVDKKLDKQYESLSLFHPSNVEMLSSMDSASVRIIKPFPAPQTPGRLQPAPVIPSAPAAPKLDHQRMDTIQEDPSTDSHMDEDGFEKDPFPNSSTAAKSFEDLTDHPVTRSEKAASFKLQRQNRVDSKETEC
attribute.measured: pIC50
Scale explanation: pIC50 corresponds to minus log10 of a concentration expressed in moles per litre.

For the record CC#CCOc1ccc(S(=O)(=O)N2Cc3ccccc3N(C(C)=O)CC2C(=O)NO)cc1 (stereo not shown) [A] , what value of pIC50 is listed for TACE (Homo sapiens)?
8.08

====

# test.target: MMP-9 (Homo sapiens, UniProt P14780)
# Sequence (P14780 94-707): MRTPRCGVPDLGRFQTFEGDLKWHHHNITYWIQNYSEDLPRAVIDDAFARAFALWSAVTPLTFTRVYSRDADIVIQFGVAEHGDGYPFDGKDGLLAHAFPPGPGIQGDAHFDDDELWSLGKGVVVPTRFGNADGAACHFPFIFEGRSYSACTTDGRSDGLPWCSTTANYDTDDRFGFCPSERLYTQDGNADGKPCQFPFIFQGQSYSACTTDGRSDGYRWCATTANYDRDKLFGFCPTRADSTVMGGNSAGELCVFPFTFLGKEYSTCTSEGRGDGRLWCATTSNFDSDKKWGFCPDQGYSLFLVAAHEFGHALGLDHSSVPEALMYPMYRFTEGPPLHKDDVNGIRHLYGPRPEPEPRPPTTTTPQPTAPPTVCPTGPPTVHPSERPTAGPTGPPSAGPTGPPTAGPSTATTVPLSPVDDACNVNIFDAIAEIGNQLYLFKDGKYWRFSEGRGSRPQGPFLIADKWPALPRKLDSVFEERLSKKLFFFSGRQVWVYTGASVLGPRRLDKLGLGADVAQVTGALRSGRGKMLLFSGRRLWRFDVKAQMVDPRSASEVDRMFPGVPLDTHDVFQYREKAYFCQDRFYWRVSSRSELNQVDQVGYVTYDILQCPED
attribute.measured: IC50 (nM)
Give the quantity in nM, number only.

I'm curious: which IC50 was measured for CC#CCOc1ccc(S(=O)(=O)N2Cc3ccccc3N(C(C)=O)CC2C(=O)NO)cc1 (stereo not shown) [A] tested on MMP-9 (Homo sapiens, UniProt P14780)?
12

====

# test.target: MMP-13 (Homo sapiens, UniProt P45452)
attribute.measured: pIC50
Remember the convention: pIC50 equals -log10 of concentration in molar.

Look up pIC50 with MMP-13 (Homo sapiens, UniProt P45452) for this molecule: CC#CCOc1ccc(S(=O)(=O)N2Cc3ccccc3N(C(C)=O)CC2C(=O)NO)cc1 (stereo not shown)
8.52
